src = ChEMBL document CHEMBL5724914

Assay: The drug is tested on Z-021 corresponding to metagenome with ENA study accession number: PRJEB37062 and ENA sample accession number: ERS12561820 for biotransformation under anaerobic condition. The drug concentrations were measured over 9 timepoints collected between 0 and 24 hours of incubation by liquid-chromatography-coupled mass spectrometry (LC–MS); also: call rule not given here
Settings: 2 µM
readout-kind: Bacterial Biotransformation

CC(=O)OCC(=O)[C@@]1(O)[C@@H](C)C[C@H]2[C@@H]3CCC4=CC(=O)C=C[C@]4(C)[C@@]3(F)[C@@H](O)C[C@@]21C [BETAMETHASONE ACETATE] | Compound metabolized
Br.CN(C)CCCC1(c2ccc(F)cc2)OCc2cc(C#N)ccc21 (configuration not stated) [CITALOPRAM HYDROBROMIDE] | Compound NOT metabolized
CN(C)C(=O)C(CCN1CCC(O)(c2ccc(Cl)cc2)CC1)(c1ccccc1)c1ccccc1 [LOPERAMIDE] | Compound NOT metabolized
O=C(NCc1ccccc1)OCCO [BURAMATE] | Compound NOT metabolized
COC(=O)[C@H]1[C@H]2C[C@@H]3c4[nH]c5cc(OC)ccc5c4CCN3C[C@H]2C[C@@H](OC(=O)c2cc(OC)c(OC)c(OC)c2)[C@@H]1OC [RESERPINE] | Compound metabolized
CCCC1O[C@@H]2C[C@H]3[C@@H]4CCC5=CC(=O)C=C[C@]5(C)[C@H]4[C@@H](O)C[C@]3(C)[C@]2(C(=O)CO)O1 (some centres not stated) [BUDESONIDE] | Compound metabolized

Field: next compound
The recorded Bacterial Biotransformation for entry C=CCN1CC[C@]23c4c5ccc(O)c4O[C@H]2C(=O)CC[C@@]3(O)[C@H]1C5 [NALOXONE] equals Compound NOT metabolized

====

Assay: The drug is tested on Z-001 corresponding to mouse gut metagenome with ENA study accession number: PRJEB37062 and ENA sample accession number: ERS12561801 for biotransformation under anaerobic condition. The drug concentrations were measured over 9 timepoints collected between 0 and 24 hours of incubation by liquid-chromatography-coupled mass spectrometry (LC–MS)
Settings: 2 µM
readout-kind: Bacterial Biotransformation

Past entries and their recorded results:
CCCCCOC(=O)Nc1nc(=O)n([C@@H]2O[C@H](C)[C@@H](O)[C@H]2O)cc1F | Compound metabolized
Cc1ccc(/C(=C\CN2CCCC2)c2ccccn2)cc1 | Compound NOT metabolized
C=CCN1CC[C@]23c4c5ccc(O)c4O[C@H]2C(=O)CC[C@@]3(O)[C@H]1C5 | Compound metabolized
NS(=O)(=O)c1cc2c(cc1Cl)N=C(CSCc1ccccc1)NS2(=O)=O [BENZTHIAZIDE] | Compound NOT metabolized
COC(=O)Nc1nc2ccc(C(=O)c3ccccc3)cc2[nH]1 | Compound metabolized

Entry under test: CNC(=C[N+](=O)[O-])NCCSCc1csc(CN(C)C)n1 . Its Bacterial Biotransformation was Compound NOT metabolized

C#C[C@]1(O)CC[C@H]2[C@@H]3CCC4=CC(=O)CC[C@@H]4[C@H]3CC[C@@]21CC yielded Bacterial Biotransformation of Compound NOT metabolized

Notebook: COCCc1ccc(OCC(O)CNC(C)C)cc1.COCCc1ccc(OCC(O)CNC(C)C)cc1.O=C(O)C(O)C(O)C(=O)O (stereo not drawn) [METOPROLOL TARTRATE] , Bacterial Biotransformation read as Compound NOT metabolized
